The reported numbers originate from patent US9777005B2.

testTarget: UniProt P11229
Sequence (P11229 1-460): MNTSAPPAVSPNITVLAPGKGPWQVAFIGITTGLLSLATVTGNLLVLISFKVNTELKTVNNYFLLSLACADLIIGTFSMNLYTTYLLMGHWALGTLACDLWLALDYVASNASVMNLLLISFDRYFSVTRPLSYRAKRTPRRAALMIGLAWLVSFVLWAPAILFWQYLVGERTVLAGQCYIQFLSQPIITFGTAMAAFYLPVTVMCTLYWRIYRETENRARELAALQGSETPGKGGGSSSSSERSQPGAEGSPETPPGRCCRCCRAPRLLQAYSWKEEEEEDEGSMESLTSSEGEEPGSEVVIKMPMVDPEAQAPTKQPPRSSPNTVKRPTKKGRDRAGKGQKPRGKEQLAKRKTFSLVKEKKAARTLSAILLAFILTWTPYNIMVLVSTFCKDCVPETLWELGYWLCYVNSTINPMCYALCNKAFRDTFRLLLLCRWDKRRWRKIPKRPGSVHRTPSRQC
assayText: Measurement of M1 receptor positive allosteric modulator (M1PAM) activity, calcium fluorescence (FLIPRtetra) in CHO-K1 cells in the presence of acetylcholine at EC20
assayContext: inflection point of M1PAM activity, in the presence of acetylcholine at EC20 (final 0.6 nM), CHO-K1 cells expressing hCHRM1; read-out: IP value
quantityMeasured: pEC50
// pEC50 is dimensionless: -log10 of concentration (M)

Record for Cn1ccc(-c2ccc(CN3Cc4ncnc(Oc5c(F)cccc5F)c4C3=O)cc2)n1 [Example 395] under target or system UniProt P11229: pEC50 reported as 7.19

Record for CCc1cc(F)c(Oc2nccc3c2C(=O)N(Cc2ccc(-c4ccn(C)n4)cc2)C3)c(F)c1 [Example 430] under target or system UniProt P11229: pEC50 reported as 7.77

Record for Cc1cc(-c2ccc(CN3Cc4ccnc(Oc5ccc(C(F)F)cc5F)c4C3=O)cc2)cnn1 [Example 392] under target or system UniProt P11229: pEC50 reported as 7.80

Record for Cc1nn(C)cc1-c1ccc(CN2Cc3ccnc(OCC4CCCO4)c3C2=O)cc1 (centres unmarked) [Example 78] under target or system UniProt P11229: pEC50 reported as 8.00

Record for Cn1cc(-c2ccc(CN3Cc4ncnc(Oc5ccc(C(F)(F)F)cc5F)c4C3=O)cc2)cn1 [Example 306] under target or system UniProt P11229: pEC50 reported as 8.05

Record for CCNC(=O)c1ccc(CN2Cc3ccnc(Oc4ccc(C(F)(F)F)cc4F)c3C2=O)cc1 [Example 432] under target or system UniProt P11229: pEC50 reported as 7.28

Record for O=C1c2c(ccnc2O[C@@H]2CCCC[C@H]2O)CN1Cc1c(F)cc(F)cc1F (single isomer, unassigned) [Example 315] under target or system UniProt P11229: pEC50 reported as 8.18

Record for CCCc1ccc(Oc2nccc3c2C(=O)N(Cc2ccc(C(=O)NC)cc2)C3)c(F)c1 [Example 451] under target or system UniProt P11229: pEC50 reported as 7.96
